Where do these numbers come from? They come from paper PMC6950821.

Test system: Huh7 cells
Measurement Protocol: MTT proliferation and viability assay, Huh7
Type: cell-based, human
Assay Setup: Homo sapiens, Huh-7, 72 h, 72 h (Supplementary Figure S4)
Experimental Endpoint: IC50

So what does the record say about IC50 for COc1cc(/C=C/C(=O)CC(=O)/C=C/c2ccc(O)c(OC)c2)ccc1O [conventional curcumin, curcumin] ? ~60 µM

---

Tested on: Huh7 cells
Measurement Protocol: MTT proliferation and viability assay, Huh7
Assay type: cell-based, human
Assay Setup: Homo sapiens, Huh-7, 96 h, 96 h (Supplementary Figure S4)
Experimental Endpoint: IC50

Quick check: IC50 of `COc1cc(/C=C/C(=O)CC(=O)/C=C/c2ccc(O)c(OC)c2)ccc1O` ? ~45 µM

---

Measurement Protocol: Pharmacokinetic study after oral gavage, curcumin in rat plasma by LC/MS/MS
Format: in vivo, male Sprague Dawley (SD) rats
Assay Setup: male, Sprague Dawley, 500 mg/kg, n = 5
Experimental Endpoint: AUC0-t (ng·h/mL)
Give just the number in ng·h/mL; leave the unit off.

Entry COc1cc(/C=C/C(=O)CC(=O)/C=C/c2ccc(O)c(OC)c2)ccc1O [conventional curcumin, curcumin] : reported AUC0-t = ? 1.1

---

Measurement Protocol: Pharmacokinetic study after oral gavage, curcumin in rat plasma by LC/MS/MS
Assay type: in vivo, male Sprague Dawley (SD) rats
Assay Setup: male, Sprague Dawley, 500 mg/kg, n = 5
Description: All animal treatment procedures followed the Guide for the Care and Use of Laboratory Animals (National Institutes of Health (NIH) publication, 85–23, revised 1996) as well as the Animal research: Reporting in vivo experiments (ARRIVE) guidelines, and were approved by the Animal Research Committee at National Yang-Ming University, Taipei, Taiwan, under Institutional Animal Care and Use Committees (IACUC) approval no: 990103. […]
Experimental Endpoint: Cmax (ng/mL)
The figure you give is taken to be in ng/mL; do not add the unit.

Could you tell me which Cmax is on file for `COc1cc(/C=C/C(=O)CC(=O)/C=C/c2ccc(O)c(OC)c2)ccc1O` ? 0.704
